Test system: HT-29
Experiment: NCI tumour cell line growth inhibition, 48 h
Active and inactive are the calls of the source. No stated cut-off is given here; in the data, active = GI50 up to about 1.1 µM and inactive = higher.
Each entry below carries its recorded GI50.
quantity measured: GI50

1) Nc1ncnc2c1ncn2C=C=CCO ... > 100 µM (inactive)
2) CSC(=N)NNC(=O)CCC(=O)Nc1ccccc1C(F)(F)F ... > 100 µM (inactive)
3) COC(=O)C1OC(Oc2cc(O)c3c(=O)cc(-c4ccc(O)cc4)oc3c2)C(O)C(O)C1O (stereo unspecified) ... > 100 µM (inactive)
4) O=Cc1ccc(CCl)cc1 ... 16.8 µM (inactive)
5) CC12CCC(CC(=O)/C1=C(/Br)I)C2(C)C (stereo unspecified) ... 11.4 µM (inactive)
6) CCC(C)(C)/C(CC(O)(C(F)(F)F)C(F)(F)F)=N\O ... > 100 µM (inactive)
